assay: amyloid nucleation score (Sup35N fusion, yeast selection) (log enrichment); library NNK2; higher = more nucleation; inactive = no reads after selection;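 also: zero at mode of non-aggregating sequences after 7 days selection at 30°C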

residueSequence	amyloid nucleation score
MTFDNDVCVSI	inactive
RFRFYYCLDCSHL	inactive
RRKANRVQFLSEYFLVCFVH	inactive
QTRTRNLLIAQVECRGRSSW	inactive

* * *

test: amyloid nucleation score (Sup35N fusion, yeast selection) (log enrichment); library NNK1; higher = more nucleation; inactive = no reads after selection
reportedMetric: amyloid nucleation score

// worked examples, amyloid nucleation score included
substance	result
PTEKYAESLMERTYFRAEMK	0.315
SGTIYWLTDQSDFILLVMRD	-1.26
NVGVRLMCVSWSVHDQLA	1.66
IVLPVCDIITEAVLSCNSPG	0.318

Query :: State its amyloid nucleation score for this substance: "HPIGSDSPHSVFMVSCVSLQ"
Result :: 1.68

Query :: State its amyloid nucleation score for this substance: "PKNKAAVKNSMALPIARQ"
Result :: -0.192

Query :: State its amyloid nucleation score for this substance: "MSIVCFCW"
Result :: 8.15

Query :: State its amyloid nucleation score for this substance: "TILYVVARYF"
Result :: -0.004

Query :: State its amyloid nucleation score for this substance: "SRSLPLHCMRHGVRRTGRMA"
Result :: 0.668

Query :: State its amyloid nucleation score for this substance: "LDIINLGGRHFTRSPVLYRN"
Result :: -0.297

Query :: State its amyloid nucleation score for this substance: "YSSSRRDCRRPGTMYRPLPQ"
Result :: -0.547

Query :: State its amyloid nucleation score for this substance: "SLVAGVVFVFMYRVPKIGLV"
Result :: -0.807

Query :: State its amyloid nucleation score for this substance: "IKSVVLS"
Result :: 0.043

Query :: State its amyloid nucleation score for this substance: "MTEQVAANAEDWSVVGNWLV"
Result :: 0.43
